B1: scFv; the commonest letter at each place (parent)
chain 1: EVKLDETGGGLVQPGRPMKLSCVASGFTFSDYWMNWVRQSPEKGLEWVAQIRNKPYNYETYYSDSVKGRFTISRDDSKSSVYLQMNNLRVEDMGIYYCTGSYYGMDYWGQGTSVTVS
chain 2: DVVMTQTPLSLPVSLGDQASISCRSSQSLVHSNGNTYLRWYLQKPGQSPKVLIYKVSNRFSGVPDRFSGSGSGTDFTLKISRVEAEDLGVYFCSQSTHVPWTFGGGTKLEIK

- Variants of: B1
- experimental protocol: yeast surface expression (ratio to wild type); higher = more expressed
- reported conditions: format: scFv 4-4-20, heavy + light
Note that class boundaries on yeast surface expression are lower bin = under 0.5, middle bin = from 0.5 up to 0.7, upper bin = 0.7 and over

[ask] // bin(item) where item = chain 1 S101L G104S
[reply] lower bin

[ask] // bin(item) where item = chain 1 M34R V37W
[reply] upper bin

[ask] // bin(item) where item = chain 1 Y103M
[reply] upper bin

[ask] // bin(item) where item = chain 1 Y32A W33I M34T
[reply] lower bin

[ask] // bin(item) where item = chain 1 N35W V37Q
[reply] lower bin

[ask] // bin(item) where item = chain 1 Y32I N35P
[reply] lower bin

[ask] // bin(item) where item = chain 1 F29W M34W
[reply] upper bin

[ask] // bin(item) where item = chain 1 G100L S101M
[reply] lower bin

[ask] // bin(item) where item = chain 1 Y102S
[reply] upper bin

[ask] // bin(item) where item = chain 1 Y103H
[reply] upper bin

[ask] // bin(item) where item = chain 1 G104C Y107V
[reply] lower bin

[ask] // bin(item) where item = chain 1 T28R W36S
[reply] lower bin

[ask] // bin(item) where item = chain 1 S30P N35G
[reply] upper bin

[ask] // bin(item) where item = chain 1 Y102W M105E
[reply] upper bin

[ask] // bin(item) where item = chain 1 T28L N35D W36N
[reply] middle bin

[ask] // bin(item) where item = chain 1 Y102I Y103E G109K
[reply] lower bin

[ask] // bin(item) where item = chain 1 G100R W108N
[reply] lower bin

[ask] // bin(item) where item = chain 1 Y32P N35K
[reply] lower bin

[ask] // bin(item) where item = chain 1 S30N V37W
[reply] middle bin

[ask] // bin(item) where item = chain 1 M34S W36Q
[reply] lower bin

[ask] // bin(item) where item = chain 1 S30D N35Q
[reply] upper bin

[ask] // bin(item) where item = chain 1 G100V G104D
[reply] upper bin

[ask] // bin(item) where item = chain 1 Y32W M34W
[reply] upper bin

[ask] // bin(item) where item = chain 1 Y102T D106P
[reply] lower bin

[ask] // bin(item) where item = chain 1 G100H W108F
[reply] lower bin

[ask] // bin(item) where item = chain 1 F29I S30L
[reply] middle bin

[ask] // bin(item) where item = chain 1 S101R G109Q
[reply] lower bin

[ask] // bin(item) where item = chain 1 Y32R M34S
[reply] lower bin

[ask] // bin(item) where item = chain 1 S101Q G104P
[reply] middle bin

[ask] // bin(item) where item = chain 1 D31N W36C
[reply] lower bin

[ask] // bin(item) where item = chain 1 S101I G109I
[reply] lower bin

[ask] // bin(item) where item = chain 1 Y32E W33K
[reply] upper bin

[ask] // bin(item) where item = chain 1 G100Q W108N
[reply] lower bin

[ask] // bin(item) where item = chain 1 Y107L W108L
[reply] middle bin

[ask] // bin(item) where item = chain 1 F29L M34W
[reply] upper bin

[ask] // bin(item) where item = chain 1 T28F M34A
[reply] middle bin

[ask] // bin(item) where item = chain 1 G104R Y107W
[reply] lower bin

[ask] // bin(item) where item = chain 1 D31P M34V
[reply] upper bin

[ask] // bin(item) where item = chain 1 Y102D D106Q
[reply] upper bin

[ask] // bin(item) where item = chain 1 F29N S30D
[reply] upper bin

[ask] // bin(item) where item = chain 1 S101C G104N G109R
[reply] lower bin

[ask] // bin(item) where item = chain 1 S101D W108Y
[reply] middle bin

[ask] // bin(item) where item = chain 1 F29I S30E
[reply] upper bin

[ask] // bin(item) where item = chain 1 Y102G G104F
[reply] middle bin

[ask] // bin(item) where item = chain 1 S30V W33A
[reply] upper bin

[ask] // bin(item) where item = chain 1 M34H V37W
[reply] middle bin

[ask] // bin(item) where item = chain 1 S101N M105P
[reply] middle bin

[ask] // bin(item) where item = chain 1 G100T Y102H D106M
[reply] upper bin

[ask] // bin(item) where item = chain 1 Y32P W33I
[reply] upper bin

[ask] // bin(item) where item = chain 1 Y103T W108S
[reply] lower bin

[ask] // bin(item) where item = chain 1 Y103E W108D
[reply] lower bin

[ask] // bin(item) where item = chain 1 D31W W33G
[reply] middle bin

[ask] // bin(item) where item = chain 1 S101V Y107H
[reply] middle bin

[ask] // bin(item) where item = chain 1 D31K Y32G
[reply] upper bin

[ask] // bin(item) where item = chain 1 D106W Y107L
[reply] lower bin

[ask] // bin(item) where item = chain 1 Y32E W33T
[reply] upper bin

[ask] // bin(item) where item = chain 1 Y102T Y103C
[reply] upper bin

[ask] // bin(item) where item = chain 1 T28G W36N
[reply] lower bin

[ask] // bin(item) where item = chain 1 Y103C W108N
[reply] lower bin

[ask] // bin(item) where item = chain 1 Y102A Y103E
[reply] upper bin

[ask] // bin(item) where item = chain 1 M34D N35Q
[reply] upper bin

[ask] // bin(item) where item = chain 1 G100H D106C
[reply] lower bin

[ask] // bin(item) where item = chain 1 S101A D106L
[reply] lower bin

[ask] // bin(item) where item = chain 1 W33R M34I
[reply] middle bin

[ask] // bin(item) where item = chain 1 D106I W108R
[reply] lower bin

[ask] // bin(item) where item = chain 1 D31T W36C
[reply] upper bin

[ask] // bin(item) where item = chain 1 S30E W33Q
[reply] upper bin

[ask] // bin(item) where item = chain 1 T28L S30N
[reply] upper bin

[ask] // bin(item) where item = chain 1 D31T V37W
[reply] upper bin

[ask] // bin(item) where item = chain 1 W108L
[reply] upper bin

[ask] // bin(item) where item = chain 1 Y102N G104I
[reply] upper bin

[ask] // bin(item) where item = chain 1 M105S D106S
[reply] upper bin

[ask] // bin(item) where item = chain 1 S101L M105L
[reply] lower bin

[ask] // bin(item) where item = chain 1 Y103P W108Y
[reply] lower bin

[ask] // bin(item) where item = chain 1 Y102M Y103A Y107L
[reply] upper bin

[ask] // bin(item) where item = chain 1 V37D
[reply] upper bin

[ask] // bin(item) where item = chain 1 Y102W Y107S
[reply] middle bin

[ask] // bin(item) where item = chain 1 F29I W33A W36Y
[reply] lower bin

[ask] // bin(item) where item = chain 1 G100N G109H
[reply] lower bin

[ask] // bin(item) where item = chain 1 D31S W36P
[reply] upper bin
